- assay_target: T1, AFP158/HLA-A*02:01 complex (human)
- T1 construct: flowed as analyte in SPR
- protocol_details: SPR, crude scFv captured, pMHC analyte;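 further: pMHC analyte injected at three concentrations, association phase of one hundred seconds, then running buffer for dissociation, rates fitted from both curves, KD derived from the rates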
observed_property: Kd
Field note: include the unit after the figure.

AS170036 VL1VH1-56N98F (scFv, also called 04-AS170036 VL1VH1-56N98F) scFv: QSALTQPRSVSGSPGQSVTISCAGTSSDVGSENYVSWYQQHPGKAPKLMIYQVNKRASGVPDRFSGSKSGNTASLTISGLQAEDEADYYCASYRSSDFNIVFGGGTKLTVLGGGGSGGGGSGGGGSEVQLVESGGGLVQPGGSLRLSCAASGFTFSSYAMSWVRQAPGKGLEWVSTINSGTNSPYYADSVKGRFTISRDNSKNTLYLQMNSLRAEDTAVYYCAKNFFDGSWFLGPPAMDYWGQGTLVTVSSHHHHHH :: 27 nM
AS170036 VL1VH1-56N108A (scFv, also called 19-AS170036 VL1VH1-56N108A) scFv: QSALTQPRSVSGSPGQSVTISCAGTSSDVGSENYVSWYQQHPGKAPKLMIYQVNKRASGVPDRFSGSKSGNTASLTISGLQAEDEADYYCASYRSSDHNIVFGGGTKLTVLGGGGSGGGGSGGGGSEVQLVESGGGLVQPGGSLRLSCAASGFTFSSYAMSWVRQAPGKGLEWVSTINSGTNSPYYADSVKGRFTISRDNSKNTLYLQMNSLRAEDTAVYYCAKNFFDGSWFLAPPAMDYWGQGTLVTVSSHHHHHH :: 15 nM

The record that follows has no Kd shown yet.
Quick one: Kd of AS170036 VL1VH1-98I108A (scFv, also called 34-AS170036 VL1VH1-98I108A; 34-AS170036 VL1VH1-98I08A) scFv: QSALTQPRSVSGSPGQSVTISCAGTSSDVGSENYVSWYQQHPGKAPKLMIYQVNKRASGVPDRFSGSKSGNTASLTISGLQAEDEADYYCASYRSSDINIVFGGGTKLTVLGGGGSGGGGSGGGGSEVQLVESGGGLVQPGGSLRLSCAASGFTFSSYAMSWVRQAPGKGLEWVSTINSGTGSPYYADSVKGRFTISRDNSKNTLYLQMNSLRAEDTAVYYCAKNFFDGSWFLAPPAMDYWGQGTLVTVSSHHHHHH ?
11 nM
